Target: hPPARα (Homo sapiens, UniProt Q07869)
Construct: expression plasmids encoding hPPARα, hPPARβ or mPPARγ chimeric receptors
Sequence (Q07869 200-468 limits assumed): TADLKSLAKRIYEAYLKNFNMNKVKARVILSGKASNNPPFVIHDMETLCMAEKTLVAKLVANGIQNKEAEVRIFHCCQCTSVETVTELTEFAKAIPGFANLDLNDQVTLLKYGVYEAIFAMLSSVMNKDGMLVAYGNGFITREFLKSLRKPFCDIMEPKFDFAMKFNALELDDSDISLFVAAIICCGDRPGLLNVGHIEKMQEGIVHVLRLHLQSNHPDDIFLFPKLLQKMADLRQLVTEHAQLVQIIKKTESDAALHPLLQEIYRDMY
Experiment: Test A transient transfection assay, HepG2 cells, Gal4-PPAR chimeric receptor luciferase reporter (Hep G2-hAlpha)
Settings: HepG2 cells transfected with hPPARα chimeric receptor, 24 hours, read-out: EC50α (Hep G2-hAlpha EC50)
Excerpt: 1. Test A. Transient Transfections Assay Using the HepG2 Hepatoma Cell Line. HepG2 cells were transiently transfected with an expression plasmids encoding hPPARα, hPPARβ or mPPARγ chimeric receptors and a reporter containing the yeast upstream activating sequence (UAS) upstream of the viral E1B promoter controlling a luciferase reporter gene. In addition, the plasmid pRSVβ-gal was used to control for transfection efficiency. […]
quantity.measured: pEC50
Give bare numbers, as −log10 of the molar value.

Give reported pEC50 value for O=C(O)C1(c2ccc(SCc3ccc(-c4ccc(C(F)(F)F)cc4)cc3)cc2)CC1
5.71

Measured values drawn from patent US7244763B2 for this set.
